biological target: Delta-type opioid receptor (Rattus norvegicus); experiment: Compound was evaluated for the inhibition of [3H]DSLET([[3H]D-Ser2,Leu5,Thr6]enkephalin binding to Opioid receptor delta 1 in rat brain homogenates.
Threshold check on Ki: strictly below 600 nM is fulfilled; on or above 600 nM is not fulfilled.

{"columns": ["compound.structure.string", "test.system", "discrete.label"],
 "data": [
  ["NCCCC[C@H](NC(=O)[C@H]1CCCN1C(=O)[C@H](CCCN=C(N)N)NC(=O)[C@@H](Cc1c[nH]c2ccccc12)NC(=O)[C@H](CCCN=C(N)N)NC(=O)[C@H](CCCN=C(N)N)NC(=O)[C@@H](Cc1c[nH]c2ccccc12)NC(=O)[C@H](Cc1ccccc1)NC(=O)CNC(=O)CNC(=O)[C@@H](N)Cc1ccc(O)cc1)C(=O)O", "Delta-type opioid receptor (Rattus norvegicus)", "fulfilled"],
  ["CC(C)C[C@H](NC(=O)[C@@H](Cc1c[nH]c2ccccc12)NC(=O)CNC(=O)[C@@H](Cc1c[nH]c2ccccc12)NC(=O)[C@@H](N)Cc1ccc(O)cc1)C(=O)N[C@@H](CCCN=C(N)N)C(=O)N[C@@H](CCCN=C(N)N)C(=O)N[C@H](Cc1c[nH]c2ccccc12)C(=O)N[C@@H](CCCN=C(N)N)C(=O)N1CCC[C@@H]1C(=O)N[C@@H](CCCCN)C(=O)O", "Delta-type opioid receptor (Rattus norvegicus)", "fulfilled"],
  ["CC(C)C[C@H](NC(=O)[C@H](Cc1ccccc1)NC(=O)[C@@H](Cc1c[nH]c2ccccc12)NC(=O)CNC(=O)[C@@H](N)Cc1ccc(O)cc1)C(=O)N[C@@H](CCCN=C(N)N)C(=O)N[C@@H](CCCN=C(N)N)C(=O)N[C@H](Cc1c[nH]c2ccccc12)C(=O)N[C@@H](CCCN=C(N)N)C(=O)N1CCC[C@@H]1C(=O)N[C@@H](CCCCN)C(=O)O", "Delta-type opioid receptor (Rattus norvegicus)", "not fulfilled"],
  ["CC(C)C[C@H](NC(=O)[C@H](Cc1ccccc1)NC(=O)CNC(=O)[C@@H](Cc1c[nH]c2ccccc12)NC(=O)[C@@H](N)Cc1ccc(O)cc1)C(=O)N[C@@H](CCCN=C(N)N)C(=O)N[C@@H](CCCN=C(N)N)C(=O)N[C@H](Cc1c[nH]c2ccccc12)C(=O)N[C@@H](CCCN=C(N)N)C(=O)N1CCC[C@@H]1C(=O)N[C@@H](CCCCN)C(=O)O", "Delta-type opioid receptor (Rattus norvegicus)", "fulfilled"],
  ["CC(C)C[C@H](NC(=O)[C@H](Cc1ccccc1)NC(=O)CNC(=O)CNC(=O)[C@@H](N)Cc1ccc(O)cc1)C(=O)N[C@@H](CCCN=C(N)N)C(=O)N[C@@H](CCCN=C(N)N)C(=O)N[C@H](Cc1c[nH]c2ccccc12)C(=O)N[C@@H](CCCN=C(N)N)C(=O)N1CCC[C@@H]1C(=O)N[C@@H](CCCCN)C(=O)O", "Delta-type opioid receptor (Rattus norvegicus)", "fulfilled"],
  ["CC(C)C[C@H](NC(=O)[C@@H](Cc1c[nH]c2ccccc12)NC(=O)CNC(=O)CNC(=O)[C@@H](N)Cc1ccc(O)cc1)C(=O)N[C@@H](CCCN=C(N)N)C(=O)N[C@@H](CCCN=C(N)N)C(=O)N[C@H](Cc1c[nH]c2ccccc12)C(=O)N[C@@H](CCCN=C(N)N)C(=O)N1CCC[C@@H]1C(=O)N[C@@H](CCCCN)C(=O)O", "Delta-type opioid receptor (Rattus norvegicus)", "not fulfilled"]
]}
